# credit: patent US9758526B2

target: EGFR (d746-750/T790M) (Homo sapiens, UniProt P00533, DEL746-750/T790M); assay: EGFR (d746-750/T790M) kinase inhibitory activity; settings: ATP 1.5 μM
Sequence (P00533 with tags, fused parts or gaps DEL746-750/T790M limits assumed): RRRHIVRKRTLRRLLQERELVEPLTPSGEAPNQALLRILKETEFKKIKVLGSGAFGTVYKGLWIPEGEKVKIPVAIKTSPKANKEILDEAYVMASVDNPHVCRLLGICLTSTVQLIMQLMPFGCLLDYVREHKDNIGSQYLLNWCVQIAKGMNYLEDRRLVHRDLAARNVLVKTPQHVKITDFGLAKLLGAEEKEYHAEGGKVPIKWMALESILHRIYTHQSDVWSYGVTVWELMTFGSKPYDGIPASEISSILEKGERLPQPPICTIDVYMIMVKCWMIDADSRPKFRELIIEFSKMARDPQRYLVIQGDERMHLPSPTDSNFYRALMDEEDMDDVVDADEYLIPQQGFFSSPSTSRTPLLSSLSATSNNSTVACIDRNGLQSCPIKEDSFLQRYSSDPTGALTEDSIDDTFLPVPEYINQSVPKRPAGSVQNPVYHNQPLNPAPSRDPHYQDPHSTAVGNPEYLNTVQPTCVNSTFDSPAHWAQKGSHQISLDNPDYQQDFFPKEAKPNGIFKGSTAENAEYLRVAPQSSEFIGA
quantity: IC50 (nM)

Use the examples below as a reference point.
{"input-smiles": "C=CC(=O)N[C@@H]1C=C(C)c2c(-c3cnc4ccccc4c3)c3c(N)ncnc3n2C1", "IC50 / nM": 3}
{"input-smiles": "C=CC(=O)N[C@H]1C/C(=C\\C)c2c(-c3cnc4ccccc4c3)c3c(N)ncnc3n2C1", "IC50 / nM": 0.28}

(1) C=C(C)C(=O)N[C@@H]1Cn2c(c(-c3cnc4ccccc4c3)c3c(N)ncnc32)C1=C
(2) C=CC(=O)N[C@H]1CC(=C)c2c(-c3cnc4ccccc4c3)c3c(N)ncnc3n2C1
## Input Rank 1 against 2 by their IC50 values and give the higher one. I would appreciate it if you answered with the label of your choice.
## Output 1

====

tested on: NCI-H1975 expressing EGFR (T790M/L858R); assay: Growth inhibition, NCI-H1975 expressing EGFR (T790M/L858R); assay type: cell-based; conditions: Homo sapiens, NCI-H1975, 72 h; cultured three days, CellTiter-Glo
quantity: GI50 (nM)

{"input-smiles": "C=C1c2c(-c3cnc4ccccc4c3)c3c(N)ncnc3n2C[C@H]1NC(=O)/C=C/Cl", "quantity": "GI50", "value": 51}

(a) C=CC(=O)N[C@H]1C=Cc2c(-c3cnc4ccccc4c3)c3c(N)ncnc3n2CC1
(b) C=C1c2c(-c3cnc4ccccc4c3)c3c(N)ncnc3n2C[C@H]1NC(=O)/C=C/CN(CC)CC
(c) C=CC(=O)N[C@@H]1CCn2c(c(-c3cnc4ccccc4c3)c3c(N)ncnc32)C1=C
## Input Please put the entries in order of rising GI50. Answer with the labels in sequence, matching the requested order.
## Output a, c, b

(A) C=CC(=O)N(C)[C@H]1Cn2c(c(-c3cnc4ccccc4c3)c3c(N)ncnc32)C1=C
(B) C=CC(=O)N[C@@H]1Cn2c(c(-c3cnc4ccccc4c3)c3c(N)ncnc32)C1=C
## Input Sorting ascending by GI50, which comes first: A or B ? I would appreciate it if you answered with the label of your choice.
## Output B

(1) C=C1c2c(-c3cnc4ccccc4c3)c3c(N)ncnc3n2C[C@H]1NC(=O)C#CC
(2) C=C(C)C(=O)N[C@@H]1Cn2c(c(-c3cnc4ccccc4c3)c3c(N)ncnc32)C1=C
(3) C=CC(=O)N[C@@H]1CCn2c(c(-c3cnc4ccccc4c3)c3c(N)ncnc32)C(=C)C1
(4) C=C1c2c(-c3cnc4ccccc4c3)c3c(N)ncnc3n2C[C@H]1NC(=O)/C=C/CN(C)CC
(5) C=CC(=O)N[C@@H]1CC(=C)c2c(-c3cnc4ccccc4c3)c3c(N)ncnc3n2C1
## Input Sequence the entries by GI50, beginning with the highest number. Answer with the labels in sequence, matching the requested order.
## Output 2, 5, 1, 4, 3

====

system: HCC827 expressing EGFR (d746-750)
quantity: GI50 (nM)

Use the examples below as a reference point.
{"molecule": "C=CC(=O)N[C@@H]1Cn2c(c(-c3cnc4ccccc4c3)c3c(N)ncnc32)C1=C", "GI50 [nM]": 1.9}
{"molecule": "C=C(C)C(=O)N[C@@H]1Cn2c(c(-c3cnc4ccccc4c3)c3c(N)ncnc32)C1=C", "GI50 [nM]": 780}
{"molecule": "C=CC(=O)N(C)[C@H]1Cn2c(c(-c3cnc4ccccc4c3)c3c(N)ncnc32)C1=C", "GI50 [nM]": 8.1}
{"molecule": "C=C1c2c(-c3cnc4ccccc4c3)c3c(N)ncnc3n2C[C@H]1NC(=O)/C=C/Cl", "GI50 [nM]": 8.1}
{"molecule": "C=CC(=O)N[C@H]1C=C(C)c2c(-c3cnc4ccccc4c3)c3c(N)ncnc3n2C1", "GI50 [nM]": 2.5}
{"molecule": "C=CC(=O)N[C@@H]1CCn2c(c(-c3cnc4ccccc4c3)c3c(N)ncnc32)C(=C)C1", "GI50 [nM]": 8.9}
{"molecule": "C=CC(=O)N[C@H]1CC(=C)c2c(-c3cnc4ccccc4c3)c3c(N)ncnc3n2C1", "GI50 [nM]": 22}
{"molecule": "C=C1c2c(-c3cnc4ccccc4c3)c3c(N)ncnc3n2C[C@H]1NC(=O)/C=C/CN(C)C", "GI50 [nM]": 5.5}

(1) C=C1c2c(-c3cnc4ccccc4c3)c3c(N)ncnc3n2C[C@H]1NC(=O)/C=C/CN1CCCCC1
(2) C=C1c2c(-c3cnc4ccccc4c3)c3c(N)ncnc3n2C[C@H]1NC(=O)C=CC (mixture of isomers)
(3) C=CC(=O)N[C@@H]1CC(=C)c2c(-c3cnc4ccccc4c3)c3c(N)ncnc3n2C1
(4) C=C1c2c(-c3cnc4ccccc4c3)c3c(N)ncnc3n2C[C@H]1NC(=O)/C=C/CN(CC)CC
(5) C=CC(=O)N(C)[C@@H]1C=C(C)c2c(-c3cnc4ccccc4c3)c3c(N)ncnc3n2C1
## Input Please put the entries in order of rising GI50. Answer with the labels in sequence, matching the requested order.
## Output 5, 1, 4, 2, 3
(5: 3.3 nM, 1: 5.6 nM, 4: 8.1 nM, 2: 16 nM, 3: 160 nM)

(a) C=CC(=O)N[C@@H]1CCn2c(c(-c3cnc4ccccc4c3)c3c(N)ncnc32)C1=C
(b) C=C1c2c(-c3cnc4ccccc4c3)c3c(N)ncnc3n2C[C@H]1NC(=O)/C=C/CN(C)C(C)C
## Input Rank a against b by their GI50 values and give the higher one. I would appreciate it if you answered with the label of your choice.
## Output a
(a: 13 nM, b: 7.9 nM)
